# Target or system: T1, human B7-H4 (purified monomeric recombinant human protein, ACRO biosystems) (human, UniProt Q7Z7D3 29-258, limits assumed, chemically biotinylated (EZ-Link NHS-LC-Biotin) in the yeast display and competition experiments; non-biotinylated in SPR)
# T1 construct: Bought recombinant monomeric protein; also called B7x; B7S1
# T1 sequence: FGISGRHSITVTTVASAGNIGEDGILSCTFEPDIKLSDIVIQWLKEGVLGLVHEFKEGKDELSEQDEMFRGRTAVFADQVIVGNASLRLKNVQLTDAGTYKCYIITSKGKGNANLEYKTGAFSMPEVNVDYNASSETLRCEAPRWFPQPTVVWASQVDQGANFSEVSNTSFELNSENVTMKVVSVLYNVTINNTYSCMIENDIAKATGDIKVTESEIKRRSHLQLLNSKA
# Test summary: SPR (Carterra LSA); scFv-Fc captured on anti-human IgG Fc, antigen injected
# Procedure: Finally, the affinity of the 24 clones was determined using high-throughput surface plasmon resonance (SPR). The supernatants were arrayed by non-covalent capture in a medium-density SPR chip previously coupled with an anti-human polyclonal antibody and (at least 4 replicates per clone). Non-biotinylated antigen was used for all affinity measurements and sensorgrams were fitted using a pseudo-first-order kinetic model (Lundström 1994). […]
Items are presented alongside their recorded Kd.

Worked set:
Binder	Test readout	Meas value
B09 scFv-Fc (scFv, V domains shown, Tested as scFv-Fc fusion (human IgG1 Fc, vector pDNL9) in crude yeast supernatant; Combo 2 library) VH: EVQLVESGGGVVQPGRSLRLSCAASGFTYSSRAMNWVRQAPGKGLEWVSAISSSGTTTYYADSVKGRFTISRDNSKNTLYLQMNSLRAEDTAVYYCARKRWYGMDVWGQGTTVTVSS VL: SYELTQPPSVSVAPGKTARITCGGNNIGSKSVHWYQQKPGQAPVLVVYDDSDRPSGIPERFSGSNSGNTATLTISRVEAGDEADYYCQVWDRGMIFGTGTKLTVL	Kd	0.118 nM
B05 scFv-Fc (scFv, V domains shown, Tested as scFv-Fc fusion (human IgG1 Fc, vector pDNL9) in crude yeast supernatant; Combo 1 library) VH: EVQLVESGGGVVQPGRSLRLSCAASGLTFSSRAMNWVRQAPGKGLEWVSAISGTGATTYYADSVKGRFTISRDNSKNTLYLQMNSLRAEDTAVYYCARKRWYGMDVWGQGTTVTVSS VL: SYELTQPPSVSVAPGKTARITCGGNNIGSKMVHWYQQKPGQAPVLVVYDDSDRPSGIPERFSGSNSGNTATLTISRVEAGDEADYYCQVWDRGMIFGTGTKLTVL	Kd	≤ 0.068 nM

[Q] Quick one: Kd for B06 scFv-Fc (scFv, V domains shown, Tested as scFv-Fc fusion (human IgG1 Fc, vector pDNL9) in crude yeast supernatant; Combo 1 library) VH: EVQLVESGGGVVQPGRSLRLSCAASGFTFSNKAMNWVRQAPGKGLEWVSAISGSGATTYYADSVKGRFTISRDNSKNTLYLQMNSLRAEDTAVYYCARKRWYGMDVWGQGTTVTVSS VL: SYELTQPPSVSVAPGKTARITCGGNNIGVKAVHWYQQKPGQAPVLVVYDDSDRPSGIPERFSGSNSGNTATLTISRVEAGDEADYYCQVWDRGMIFGTGTKLTVL ?
[A] 0.097 nM
